# System: MS2 coat protein
# EXPERIMENT_NOTES: apparent KD of MS2 coat protein; designed switch direction (-1 OFF switch, 1 ON switch): -1; higher = weaker reporter binding
# REPORTED_CONDITIONS: input ligand: none
QUANTITY_NAME: apparent KD of MS2 coat protein (µM)
Give the number; µM is assumed, so skip it.

In the examples that follow, each entry is paired with its recorded apparent KD of MS2 coat protein.
RECORD_SEQUENCE	apparent KD of MS2 coat protein [µM]
CAGUACUGAGGAUAUACAUGAGGAUCACCCAUGUUUUCCAGCUAGGAAACUAGCAAGUGUAGAAGGCAGUACUG [Salish 065 m6] (Eterna round: R97, puzzle: Exclusion 3)	0.0256
GUUAAUUGUCAGAUGGGUGACAUGAGGAUCACCCAUGUCACAAGCUUUUUGCUCGUCUUAUAAUUAACCCAUCUGAC [Stov1/11-A3] (Eterna round: R97, puzzle: Sensor, turn-off variant 1)	0.0133

Challenge: Record lookup: for MS2 coat protein, what apparent KD of MS2 coat protein belongs to ACAUGUCAUUGAGGAUAUCGCACACAUGAGGAUCACCCAUGUAAACGGAUGCUCUUUCGUGGGUUCGAGAAGGCGAUGUACAUU [Ex NG2 #96] (Eterna round: R96, puzzle: Exclusion NG 2) ?
Response given: 0.088

---

# System: MS2 coat protein
# EXPERIMENT_NOTES: apparent KD of MS2 coat protein; designed switch direction (-1 OFF switch, 1 ON switch): -1; higher = weaker reporter binding
# REPORTED_CONDITIONS: input ligand: none
QUANTITY_NAME: apparent KD of MS2 coat protein (nM)
Give the number; nM is assumed, so skip it.

RECORD_SEQUENCE	MEASUREMENT_TARGET	apparent KD of MS2 coat protein, nM
AGGUAGUCAGGAUAUUAGUAGUAGCGGGAUAACGCUACUAUUGAGAAGGGACAUGAGGAUCACCCAUGUUUUGU [JR_Ex4_Sub067] (Eterna round: R97, puzzle: Exclusion 4)	MS2 coat protein	22.5
GAUGAAAGAGUCAGGAUAUAUAACCACGACGGCUUGUAGAAGGGACAUGAGGAUCACCCAUGUGAUGGAAUGAU [Eternabot (L2) Solution 13] (Eterna round: R97, puzzle: Brourd's mod of Exclusion 4)	MS2 coat protein	43.6
UUGCAGUCGUCAGGAUAUAGUAUUACGGCCAUUUUUUUUUUCAUACAUGAGGAUCACCCAUGUCGCUAGAAGGGAUUAUCGAUU [salish99_ExNG2_r04_103] (Eterna round: R96, puzzle: Exclusion NG 2)	MS2 coat protein	67
GUGGUACAUGAGGAUCACCCAUGUAAGGAUAUAGUCGGCUGGUGGUCGCGGGUGGUGGCUAGAAGGUGCGUGCG [-19.6, -18.2 kcal, A 19%] (Eterna round: R97, puzzle: Exclusion 1)	MS2 coat protein	114
UGGCCACAUGAGGAUCACCCAUGUCAGGAUAUCGGAUAUAUUGUGGUUUUAAGACCAACGAGAAGGGACGGGUC [Eternabot (L1) Solution 9] (Eterna round: R97, puzzle: Exclusion 1)	MS2 coat protein	139

Challenge: # input sequence: CGAUAAAAGACAGGAUAUGAGGAGAGAGAGAGAUCAGAAGGGUCACAUGAGGAUCACCCAUGUGAGUUCUCGAAAUUAAAUAUU [Prohibition 50 - Jieux - Exclusion NG 1] (Eterna round: R96, puzzle: Exclusion NG 1) ; wanted: its apparent KD of MS2 coat protein
Response given: 18.8

Challenge: What do you get for AGUCGUAGACAGGAUAUGCGGCUAAUAAAUAAAGCAGAAGGGUCUACUUGAGGAUCACCCAAGUGGGCGGUCUG [jl-ex6-4.22 ViennaUCT mod] (Eterna round: R97, puzzle: Exclusion 6) ?
Response given: 16.9

Challenge: What do you get for UACAUGAGGAUCACCCAUGUUUUGUCGUGUAUGGUACCCGUCUAGGAUAUCGUGUUAUUGGACCGCGAGAAGGAGAGUAUCAAU [Excl-NG3-LRO03] (Eterna round: R96, puzzle: Exclusion NG 3) ?
Response given: 33.5

Challenge: What do you get for ACAAGGAUGAAGGAUAUGGAAGAGUGGGAGCCUCCAGAAGGUCGUACAUGAGGAUCACCCAUGUAUUGGGCUUA [Eternabot (L2) Solution 38] (Eterna round: R97, puzzle: Exclusion 6) ?
Response given: 21

Challenge: What do you get for GGAAGGAGUGUCAGGAUAUCCGGAGGGAAACCUCCGGAGAAGGGACAUGAGGAUCACCCAUGUAGAGGAAGGAG [AK-MS2ROC-r4-Bmoexclusion4-9] (Eterna round: R97, puzzle: Brourd's mod of Exclusion 4) ?
Response given: 441

Challenge: What do you get for UUUAAUCGUGACAUGGGUGACAUGAGGAUCACCCAUGUCACAAGCUUCUCGCUCGUCUUAUAAUUAACCCAUGUCAC [LRO Sensor-off var1-13 mod of Stov1-13-A1 by Brourd] (Eterna round: R97, puzzle: Sensor, turn-off variant 1) ?
Response given: 18.7

Challenge: What do you get for GGAGCUGGAGGAUAUACAAGAUCGAAAGAUCAAAGAUCCGUACAUGAGGAUCACCCAUGUAGAAGGCCAGCUCC (Eterna round: R97, puzzle: Exclusion 2) ?
Response given: 40.4

Challenge: What do you get for AAGUAGCAUGCAGGAUAUGGUAAUCGAACGUUACCAGAAGGGCAUGAGGAUCACCCAUGUUCUCAUUUGUAAGAACAGAUGUCU [Ex NG1 #7] (Eterna round: R96, puzzle: Exclusion NG 1) ?
Response given: 94.4

Challenge: What do you get for AAGUCUGGUGUAAGGAUAUUGUUAGACUUGGUGAGCAAGAAGGUACAUGAGGAUCACCCAUGUGGGAUACUAGC [Eternabot (Original) Solution 41] (Eterna round: R97, puzzle: Brourd's mod of Exclusion 4) ?
Response given: 40

Challenge: What do you get for AGCGAUCAUGUUAGGAUAUCCAAGCAGACGCUCAAGGAGAAGGAACAUGAGGAUCACCCAUGUUUGAUCCAAAC [Usrediza] (Eterna round: R97, puzzle: Brourd's mod of Exclusion 4) ?
Response given: 19.7

Challenge: What do you get for UUAAAUCAUGUAGGAUAUGCGUGGCGAAGCUAUGCAGAAGGACAUGAGGAUCACCCAUGUUCAUCCGUCUGCGUACAGAUGGAA [JL Eng1 1.08 mod 1] (Eterna round: R96, puzzle: Exclusion NG 1) ?
Response given: 28.2

Challenge: What do you get for AGUAGGAGAGGAUAUACGAAGUCAAAAGACUUCAAUACUCAACAUGAGGAUCACCCAUGUAGAAGGCUCCUACA [Omei Ex2 BD A4] (Eterna round: R97, puzzle: Exclusion 2) ?
Response given: 19.4

Challenge: What do you get for GCGGUACAUGAGGAUCACCCAUGUCAGGAUAUCCGCUGUUUGUUGAUAAGCAGGCGGUGGAGAAGGGACUUCGC [-26.7, -26 kcal, 23% A] (Eterna round: R97, puzzle: Exclusion 1) ?
Response given: 33.8

---

# Tested on: MS2 coat protein
# EXPERIMENT_NOTES: apparent KD of MS2 coat protein; designed switch direction (-1 OFF switch, 1 ON switch): -1; higher = weaker reporter binding
# REPORTED_CONDITIONS: input ligand: microRNA oligo, concentration not stated
Hi, to clarify the labels: 1 (yes) covers apparent KD of MS2 coat protein from 0.07 µM upward, 0 (no) covers anything below 0.07 µM.

Some entries whose results are on file:
RECORD_SEQUENCE	CATEGORY_LABEL
UACAUGAGGAUCACCCAUGUUUUGUCGUGUAUGGUAUUUAUCUAGGAUAUCAAUUUAGUAAUUUAUGAGAAGGAGAAUAUUAAU [JMF's solution 73] (Eterna round: R96, puzzle: Exclusion NG 3)	0 (no)
AAUAACAAGCCGAUCCUAAACAUGAGGAUCACCCAUGUGCUCGUCUUGUAAAGUACUAUCACGAAAGUGAUAGUACA (Eterna round: R96, puzzle: Sensor v3, turn-off variant 1)	1 (yes)
UGAUCUAGGCGAGGAUAUACAUGAGGAUCACCCAUGUAAACGUGACAUGAAAACAUGUCACGAAUGUAGAAGGCGCCUAGAUCU [JL ENG2 3.54] (Eterna round: R96, puzzle: Exclusion NG 2)	0 (no)

Now consider the entry below.
Challenge: Given the entry AGCUGUGGCCGAGGAUAUCUAACUUCAAUAACCGAAAUAUAAUCGGACAUGAGGAUCACCCAUGUAGAGAAGGCGGUCUCAGCA [Eli eng2 - 082] (Eterna round: R96, puzzle: Exclusion NG 2) , answer whether its apparent KD of MS2 coat protein meets or surpasses 0.07 µM.
Response given: 0 (no)

---

The entries below are paired with their reported apparent KD of MS2 coat protein.
# Tested on: MS2 coat protein
# EXPERIMENT_NOTES: apparent KD of MS2 coat protein; designed switch direction (-1 OFF switch, 1 ON switch): -1; higher = weaker reporter binding
# REPORTED_CONDITIONS: input ligand: FMN 200 uM
Give the number; nM is assumed, so skip it.

In the examples that follow, each entry is paired with its recorded apparent KD of MS2 coat protein.
RECORD_SEQUENCE	MEASUREMENT_TARGET	TEST_RESULT
GUUCCGGGAGGAUAUACAUGAGGAUCACCCAUGUUCACCAGCUUUAGCUACGACCUAUGUAGAAGGUCUGGAGA [Eternabot (L1) Solution 36] (Eterna round: R97, puzzle: Exclusion 3)	MS2 coat protein	46.7
GGGUGACAUGAGGAUCACCCAUGUCAGGAUAUGGGCCCGGGCCCGAAAGGGUUUGGGCCCAGAAGGGACUGCCC [-44.5, -43.5 kcal, 22%A (-3 GC series)] (Eterna round: R97, puzzle: Exclusion 1)	MS2 coat protein	145
AAGUAUAGAGGAUAUAGUAGGUACAACAUGAGGAUCACCCAUGUUCUUCAUAACGUAUUUCUAGAAGGCUGAUAAA [EX-5 Malc#27] (Eterna round: R96, puzzle: Exclusion 5)	MS2 coat protein	356
AAGUCUGGUGUAAGGAUAUUGUUAGACUUGGUGAGCAAGAAGGUACAUGAGGAUCACCCAUGUGGGAUACUAGC [Eternabot (Original) Solution 41] (Eterna round: R97, puzzle: Brourd's mod of Exclusion 4)	MS2 coat protein	40.5
UUGUUACAUGAGGAUCACCCAUGUGAGGAUAUGGUUCAGUACUGUCAUGUCAAGUACUCCAGAAGGCACAUGUU [1st #30] (Eterna round: R97, puzzle: Exclusion 1)	MS2 coat protein	566

Challenge: # input sequence: CCUUCCCGAGGAUAUACAUGAGGAUCACCCAUGUGAUCCUAAGGCUGAUCAAGCCUAUGUAGAAGGCGCAAAUC [salish99_ex3_r4_006] (Eterna round: R97, puzzle: Exclusion 3) ; wanted: its apparent KD of MS2 coat protein
Response given: 35.1

Challenge: What do you get for UAUGUGUCAGGAUAUUAGUAGUAAAUGAAUAAAAUUAUUACUGAGAAGGGACAUGAGGAUCACCCAUGUGCCUC [Mat - Exclusion 4 - Eli Mod - D27] (Eterna round: R97, puzzle: Exclusion 4) ?
Response given: 345

Challenge: What do you get for UUAUGGCGAGAGGAUAUUCUGCUACGGCCCGGAGAAGAAGGUUUGACAUGAGGAUCACCCAUGUGGUCGCUCCU [Eternabot (L2) Solution 29] (Eterna round: R97, puzzle: Exclusion 6) ?
Response given: 138

Challenge: What do you get for AUAACGAUAGUCAGGAUAUCGGUGGCAUCCGUCACCGAGAAGGGACAUGAGGAUCACCCAUGUUAAGCCUAUGA [Eternabot (L1) Solution 69] (Eterna round: R97, puzzle: Brourd's mod of Exclusion 4) ?
Response given: 11.5
